Molecular target: Estrogen receptor (Homo sapiens) (UniProt P03372)
Sequence (whole entry): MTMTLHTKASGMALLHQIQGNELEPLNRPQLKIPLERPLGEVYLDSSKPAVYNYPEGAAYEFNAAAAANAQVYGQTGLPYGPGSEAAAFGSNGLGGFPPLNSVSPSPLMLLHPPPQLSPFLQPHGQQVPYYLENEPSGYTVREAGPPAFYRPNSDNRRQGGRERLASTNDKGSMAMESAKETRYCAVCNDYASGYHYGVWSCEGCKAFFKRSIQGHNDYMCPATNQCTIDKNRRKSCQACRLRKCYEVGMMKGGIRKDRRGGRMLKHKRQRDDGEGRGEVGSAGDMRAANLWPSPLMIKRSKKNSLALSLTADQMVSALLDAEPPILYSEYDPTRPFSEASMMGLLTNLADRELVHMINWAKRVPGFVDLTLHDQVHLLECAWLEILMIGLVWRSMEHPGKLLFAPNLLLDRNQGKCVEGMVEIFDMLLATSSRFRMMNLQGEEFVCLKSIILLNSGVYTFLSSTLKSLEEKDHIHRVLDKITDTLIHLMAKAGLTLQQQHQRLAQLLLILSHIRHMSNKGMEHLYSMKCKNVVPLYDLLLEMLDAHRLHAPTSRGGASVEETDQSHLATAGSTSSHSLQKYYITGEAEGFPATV
Test: Binding affinity to purified human ERalpha LBD incubated for 2 hrs by fluorescence tracer based competitive fluorometric binding assay relative to estradiol
The threshold is 0.6%. Values of RBA beneath it are tagged label 1; values meeting or exceeding it are tagged label 0.

Q: Dear colleague, could you confirm whether RBA of CCN(c1ccc(OCCCCCCCCCCC(=O)O)cc1)S(=O)(=O)[C@H]1C[C@H]2O[C@@H]1C(c1ccc(O)cc1)=C2c1ccc(O)cc1 (relative stereo) falls below 0.6%? Thanks.
A: label 1

Q: Dear colleague, could you confirm whether RBA of CN(c1ccccc1)S(=O)(=O)[C@H]1C[C@H]2O[C@@H]1C(c1ccc(OCCN3CCCCC3)cc1)=C2c1ccc(O)cc1 (relative stereo) falls below 0.6%? Thanks.
A: label 0

Q: Dear colleague, could you confirm whether RBA of COc1ccc(N(CC(F)(F)F)S(=O)(=O)[C@H]2C[C@H]3O[C@@H]2C(c2ccc(OCCCCCCCCCCC(=O)O)cc2)=C3c2ccc(O)cc2)cc1 (relative stereo) falls below 0.6%? Thanks.
A: label 1

Q: Dear colleague, could you confirm whether RBA of CCN(c1ccc(OCCCCCCC(=O)O)cc1)S(=O)(=O)[C@H]1C[C@H]2O[C@@H]1C(c1ccc(O)cc1)=C2c1ccc(O)cc1 (relative stereo) falls below 0.6%? Thanks.
A: label 0

Q: Dear colleague, could you confirm whether RBA of CCN(c1ccccc1)S(=O)(=O)[C@H]1C[C@H]2O[C@@H]1C(c1ccc(OCC(O)CO)cc1)=C2c1ccc(O)cc1 (relative stereo) falls below 0.6%? Thanks.
A: label 1

Q: Dear colleague, could you confirm whether RBA of CCN(c1ccc(OCCCCCCCC(=O)O)cc1)S(=O)(=O)[C@H]1C[C@H]2O[C@@H]1C(c1ccc(O)cc1)=C2c1ccc(O)cc1 (relative stereo) falls below 0.6%? Thanks.
A: label 0

Q: Dear colleague, could you confirm whether RBA of CCN(c1ccccc1)S(=O)(=O)[C@H]1C[C@H]2O[C@@H]1C(c1ccc(OCCCCCCCCCCC(=O)O)cc1)=C2c1ccc(O)cc1 (relative stereo) falls below 0.6%? Thanks.
A: label 0

Q: Dear colleague, could you confirm whether RBA of COc1ccc(N(CC(F)(F)F)S(=O)(=O)[C@H]2C[C@H]3O[C@@H]2C(c2ccc(OCCCCCCC(=O)O)cc2)=C3c2ccc(O)cc2)cc1 (relative stereo) falls below 0.6%? Thanks.
A: label 0

Q: Dear colleague, could you confirm whether RBA of COc1ccc(N(CC(F)(F)F)S(=O)(=O)[C@H]2C[C@H]3O[C@@H]2C(c2ccc(OCCCCCCCC(=O)O)cc2)=C3c2ccc(O)cc2)cc1 (relative stereo) falls below 0.6%? Thanks.
A: label 1

Q: Dear colleague, could you confirm whether RBA of CCN(c1ccccc1)S(=O)(=O)[C@H]1C[C@H]2O[C@@H]1C(c1ccc(OCCCCCCCC(=O)O)cc1)=C2c1ccc(O)cc1 (relative stereo) falls below 0.6%? Thanks.
A: label 0

Q: Dear colleague, could you confirm whether RBA of CCN(c1ccc(OCC(O)CO)cc1)S(=O)(=O)[C@H]1C[C@H]2O[C@@H]1C(c1ccc(O)cc1)=C2c1ccc(O)cc1 (relative stereo) falls below 0.6%? Thanks.
A: label 1
